Collected inhibition values appear next to each entry.
# tgt: AP-2 complex subunit beta (Homo sapiens) (UniProt P63010)
# Sequence (P63010 whole entry, looked up, one chain of several): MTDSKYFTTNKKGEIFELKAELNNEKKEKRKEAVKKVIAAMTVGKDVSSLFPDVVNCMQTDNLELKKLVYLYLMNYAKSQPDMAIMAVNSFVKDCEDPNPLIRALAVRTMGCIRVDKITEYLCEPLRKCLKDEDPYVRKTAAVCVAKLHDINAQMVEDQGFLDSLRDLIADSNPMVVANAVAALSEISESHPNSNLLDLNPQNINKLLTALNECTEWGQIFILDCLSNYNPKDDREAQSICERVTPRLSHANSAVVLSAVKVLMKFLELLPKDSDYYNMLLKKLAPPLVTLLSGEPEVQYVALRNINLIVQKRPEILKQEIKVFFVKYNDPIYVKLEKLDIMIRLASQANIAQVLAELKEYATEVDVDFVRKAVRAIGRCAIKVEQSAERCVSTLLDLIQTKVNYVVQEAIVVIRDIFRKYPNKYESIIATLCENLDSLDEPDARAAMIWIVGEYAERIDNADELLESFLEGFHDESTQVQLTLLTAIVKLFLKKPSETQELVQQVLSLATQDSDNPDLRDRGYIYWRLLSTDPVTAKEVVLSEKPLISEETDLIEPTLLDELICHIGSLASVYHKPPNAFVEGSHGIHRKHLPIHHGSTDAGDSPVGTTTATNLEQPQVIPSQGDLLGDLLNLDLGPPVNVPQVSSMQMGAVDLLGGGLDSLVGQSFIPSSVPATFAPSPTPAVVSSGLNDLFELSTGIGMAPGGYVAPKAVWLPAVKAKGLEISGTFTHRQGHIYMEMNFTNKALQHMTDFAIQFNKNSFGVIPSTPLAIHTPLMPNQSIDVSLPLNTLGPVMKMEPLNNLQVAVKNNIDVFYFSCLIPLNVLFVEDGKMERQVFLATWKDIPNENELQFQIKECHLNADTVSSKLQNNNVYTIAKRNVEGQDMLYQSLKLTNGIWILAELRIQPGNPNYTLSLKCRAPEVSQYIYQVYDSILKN
# assay.info: inhibitors of arrestin peptide binding to AP2, pilot screen, biochemical, validation set, GST-AP2 beads, flow cytometry (AID 504541);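 further: AP2 carries R879A mutation and is captured from E. coli lysate; bead-bound FITC arrestin peptide fluorescence measuring arrestin peptide binding to AP2; 0% = DMSO wells and 100% = excess unlabeled arrestin peptide control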
# assay.setup: FITC arrestin peptide, at 10 µM, active compounds read high
measure.name: inhibition (%)

compound=O=C(O)CCCc1ccc(N(CCCl)CCCl)cc1 output_unit=% recorded_number=1.29
compound=COc1ccc(Cc2nccc3cc(OC)c(OC)cc23)cc1OC output_unit=% recorded_number=-1.6
compound="CC(C)C[C@H]1C(=O)N2CCCC2[C@]2(O)O[C@](NC(=O)[C@@H]3C=C4c5cccc6[nH]cc(c56)CC4N(C)C3)(C(C)C)C(=O)N12 (stereo not given in full)" output_unit=% recorded_number=4.91
compound=C#C[C@]1(O)CC[C@H]2[C@@H]3CCC4=CC(=O)CC[C@]4(C)[C@H]3CC[C@@]21C output_unit=% recorded_number=14.2
compound="CC(C)(C)NCC(O)c1cc(Cl)c(N)c(Cl)c1 (stereo not given)" output_unit=% recorded_number=-12.6
compound=CCC1(c2ccccc2)C(=O)N(COC)C(=O)N(COC)C1=O output_unit=% recorded_number=10.8
compound=CCOc1ccc(N2C(=O)NC(=O)/C(=C\c3cc(OC)c(OC)cc3[N+](=O)[O-])C2=O)cc1 output_unit=% recorded_number=7.81
compound=Nc1ccncc1 output_unit=% recorded_number=-14.8
compound=C=C1CC[C@@]2(O)[C@H]3Cc4ccc(O)c5c4[C@@]2(CCN3CC2CC2)[C@H]1O5 output_unit=% recorded_number=-7.26
compound=C[C@H]1CCCC(=O)CCCCCc2cc(O)cc(O)c2C(=O)O1 output_unit=% recorded_number=-10.7
compound="CN1C(=O)N(C)C(=O)C2(Cc3ccccc3N3CCOCC32)C1=O (stereo not given)" output_unit=% recorded_number=-5.91
compound="CC[N+]1(C)CCCC(OC(=O)C(O)(c2ccccc2)c2ccccc2)C1 (stereo not given)" output_unit=% recorded_number=-0.87
compound=CCNC(=S)N(C)CCc1cc2c(c(OC)c1C=C1C(=O)N(C)C(=O)N(C)C1=O)OCO2 output_unit=% recorded_number=27.6
compound="CC12CN3CC(C)(CN(C1)C3c1cccnc1)C2=O (stereo not given)" output_unit=% recorded_number=-8.61
compound=CC(C)CCC1(CN2CCCC2=O)C(=O)NC(=O)NC1=O output_unit=% recorded_number=-2.03
compound=CCN(CC)CCOC(=O)C(O)(c1ccccc1)c1ccccc1 output_unit=% recorded_number=0.48
compound=C[C@H]1CC[C@@]2(C)[C@@H](CC[C@@H]3[C@@H]2CC[C@]2(C)[C@@H](O)CC[C@@H]32)C1 output_unit=% recorded_number=-8.56
compound="CC12CCC3C(CC=C4CC5(CCC43C)OCCO5)C1CCC2=O (stereo not given)" output_unit=% recorded_number=-3.19
compound=COc1cc2c3cc1Oc1cc(ccc1O)C[C@@H]1c4c(cc(OC)c(O)c4Oc4ccc(cc4)C[C@H]3N(C)CC2)CCN1C output_unit=% recorded_number=19.2
compound=CCOC(=O)C1=C(C)OC(N)=C(C(=O)OCC)[C@@]12C(=O)N(CC(N)=O)c1ccccc12 output_unit=% recorded_number=-3.6
compound="CCC(COC(=O)c1cc(OC)c(OC)c(OC)c1)(c1ccccc1)N(C)C (stereo not given)" output_unit=% recorded_number=-3.75
compound="C[N+]1(C)[C@@H]2CC[C@H]1CC(OC(=O)C(CO)c1ccccc1)C2 (stereo not given in full)" output_unit=% recorded_number=-5.05
compound="C#CCN(C)C(C)Cc1ccccc1 (stereo not given)" output_unit=% recorded_number=-6.88
compound=CCNC(=O)[C@H]1O[C@@H](n2cnc3c(N)ncnc32)[C@H](O)[C@@H]1O output_unit=% recorded_number=3.14
compound="CCOC(=O)c1cncn1C(C)c1ccccc1 (stereo not given)" output_unit=% recorded_number=-10.9
